Where do these numbers come from? They come from paper PMC9030166.

Test system: K562
Test: MTT cytotoxicity, K562 chronic myeloid leukemia cells
Format: cell-based
Settings: Homo sapiens, K562, suspension culture, 48 h (Table 2)
Give measured pIC50 for each item. Keep answers brief.
Formally, pIC50 is defined as -log10 of the concentration c, with c in mol/L.

Which pIC50 value belongs to C=C1C2=C(C(=O)N1OC)[C@@H](N(CC)CCO)[C@@](C)(O)[C@H](CCCCC)O2 [Compound 9] ?
5.43

Which pIC50 value belongs to COc1cc([C@@H]2c3cc4c(cc3[C@@H](O[C@@H]3O[C@@H]5CO[C@@H](C)O[C@H]5[C@H](O)[C@H]3O)[C@H]3COC(=O)[C@H]23)OCO4)cc(OC)c1O [Etoposide, etoposide, reference compound] ?
5.26

Which pIC50 value belongs to C=C1C2=C(C(=O)N1OC)[C@@H](N1CCCC1)[C@@](C)(O)[C@H](CCCCC)O2 [Compound 1] ?
5.42

Which pIC50 value belongs to CCCCC[C@@H]1OC2=C(C(=O)N(OC)/C2=C\n2cnnc2)C(n2cnnc2)[C@@]1(C)O (stereo partly shown) [Compound 10] ?
4.35
